The reader will find reported Erythro/Ec: concentration required to restore erythromycin activity (combination MIC) values listed item by item below.
System: E. coli ATCC 25922
assay.protocol: Erythromycin potentiation against E. coli
Type: cell-based, Escherichia coli
condition.parameters: erythromycin at 2 µg/mL (2.7 µM), mean n = 3
Report as a plain number; the unit µM is understood.

Prompt line: Erythro/Ec: concentration required to restore erythromycin activity (combination MIC) for O=C(NCCCNCCCCCCCNCCCNC(=O)c1c[nH]c2ccccc12)c1c[nH]c2ccccc12.O=C(O)C(F)(F)F.O=C(O)C(F)(F)F [Compound 12c] ?
Response line: 65.9

Prompt line: Query (compound): COc1ccc2[nH]cc(C(=O)NCCCNCCCCNCCCNC(=O)c3c[nH]c4ccc(OC)cc34)c2c1 [Compound 14a] ; field requested: Erythro/Ec: concentration required to restore erythromycin activity (combination MIC)
Response line: 257

Prompt line: What measured Erythro/Ec: concentration required to restore erythromycin activity (combination MIC) goes with O=C(NCCCNCCCCCCCCCCCCNCCCNC(=O)c1c[nH]c2c(F)cccc12)c1c[nH]c2c(F)cccc12.O=C(O)C(F)(F)F.O=C(O)C(F)(F)F [Compound 16f] ?
Response line: 231

Prompt line: Record request: Erythro/Ec: concentration required to restore erythromycin activity (combination MIC) value, item COc1cccc2c(C(=O)NCCCNCCCCCCCCNCCCNC(=O)c3c[nH]c4c(OC)cccc34)c[nH]c12 [Compound 17d]
Response line: 120

Prompt line: Data request, read-out Erythro/Ec: concentration required to restore erythromycin activity (combination MIC), for O=C(NCCCNCCCCCCNCCCNC(=O)c1c[nH]c2ccccc12)c1c[nH]c2ccccc12.O=C(O)C(F)(F)F.O=C(O)C(F)(F)F [Compound 12b]
Response line: 33.6

Prompt line: What value of Erythro/Ec: concentration required to restore erythromycin activity (combination MIC) has been reported for the following compound? Cc1cccc2c(C(=O)NCCCNCCCCCCCCCCCCNCCCNC(=O)c3c[nH]c4c(C)cccc34)c[nH]c12.O=C(O)C(F)(F)F.O=C(O)C(F)(F)F [Compound 18f]
Response line: 116.7
